Target: cyclooxygenase-1 (Homo sapiens, UniProt P23219)
Construct: The cultured U-937 (humane lymphoma cell, obtained from Korean cell line bank) was centrifuged to collect the pellet; endogenous in cells; host or cells: U-937 (human lymphoma cell line, Korean cell line bank)
Sequence (P23219 24-599): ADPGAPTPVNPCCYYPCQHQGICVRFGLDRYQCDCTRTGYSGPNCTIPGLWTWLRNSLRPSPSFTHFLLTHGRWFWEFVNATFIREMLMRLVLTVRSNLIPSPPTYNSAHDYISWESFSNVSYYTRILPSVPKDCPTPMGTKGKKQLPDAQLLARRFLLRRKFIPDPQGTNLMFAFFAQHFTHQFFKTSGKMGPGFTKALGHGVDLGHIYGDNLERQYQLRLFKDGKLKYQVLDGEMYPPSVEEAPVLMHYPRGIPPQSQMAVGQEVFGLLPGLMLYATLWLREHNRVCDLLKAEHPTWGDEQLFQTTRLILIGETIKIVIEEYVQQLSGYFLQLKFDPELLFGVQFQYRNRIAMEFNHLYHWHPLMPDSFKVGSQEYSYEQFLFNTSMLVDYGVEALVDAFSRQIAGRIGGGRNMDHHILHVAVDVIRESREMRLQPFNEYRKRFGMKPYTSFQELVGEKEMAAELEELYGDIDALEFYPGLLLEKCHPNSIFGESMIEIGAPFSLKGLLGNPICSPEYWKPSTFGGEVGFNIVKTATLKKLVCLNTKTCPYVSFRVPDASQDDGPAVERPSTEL
Test: Inhibition of cyclooxygenase-1 in U-937 cells (PGE2 quantitation)
Assay type: cell-based
Conditions: 30 μM; U-937 cells
Exam item: assign Fulfilled to entries whose Inhibitory effects of cyclooxygenase (COX): COX-1 is below 50 % inhibition and Not fulfilled to entries at or above 50 % inhibition. Note that a value of exactly 50 % inhibition receives Not fulfilled.

Answered examples (4):
{"columns": ["cpd smiles", "label class"],
 "data": [
  ["Cc1nc(-c2ccc(Cl)cc2)n(-c2ccc(S(N)(=O)=O)cn2)n1", "Not fulfilled"],
  ["COc1cccc(-c2nc(C)nn2-c2ccc(S(N)(=O)=O)cc2)c1", "Fulfilled"],
  ["COc1cc(OC)cc(-c2nc(C)nn2-c2ccc(S(N)(=O)=O)cc2)c1", "Not fulfilled"],
  ["Cc1nc(-c2cccc(F)c2)n(-c2ccc(S(N)(=O)=O)cn2)n1", "Fulfilled"]
]}

In plain terms, does Cc1nc(-c2ccc(Br)cc2)n(-c2ccc(S(N)(=O)=O)cn2)n1 come in under 50 % inhibition for Inhibitory effects of cyclooxygenase (COX): COX-1?
Fulfilled

Here's an entry: Cc1nc(-c2ccc(Cl)cc2)n(-c2ccc(S(C)(=O)=O)cc2)n1 . Is its Inhibitory effects of cyclooxygenase (COX): COX-1 below 50 % inhibition?
Not fulfilled

Report whether reported Inhibitory effects of cyclooxygenase (COX): COX-1 is lower than 50 % inhibition (strictly) for Cc1nc(-c2ccccc2)n(-c2ccc(S(N)(=O)=O)cc2)n1
Not fulfilled

Is it true that Inhibitory effects of cyclooxygenase (COX): COX-1 reported for Cc1nc(-c2cccc(Br)c2)n(-c2ccc(S(N)(=O)=O)cc2)n1 is less than 50 % inhibition?
Not fulfilled

Problem: For the compound Cc1nc(-c2ccc(F)cc2)n(-c2ccc(S(N)(=O)=O)cc2)n1 , is Inhibitory effects of cyclooxygenase (COX): COX-1 under 50 % inhibition?
Not fulfilled

----------
Molecular target: cyclooxygenase-1 (Homo sapiens, UniProt P23219)
Construct: The cultured U-937 (humane lymphoma cell, obtained from Korean cell line bank) was centrifuged to collect the pellet; endogenous in cells; host or cells: U-937 (human lymphoma cell line, Korean cell line bank)
Assay: Inhibition of cyclooxygenase-1 in U-937 cells (PGE2 quantitation)
Format: cell-based
Conditions: 3 μM; U-937 cells
Threshold 40 % inhibition: Inhibitory effects of cyclooxygenase (COX): COX-1 strictly smaller gives true, otherwise false.

Here's what some known entries look like.
{"columns": ["molecule", "label class"],
 "data": [
  ["Cc1nc(-c2ccc(F)cc2)n(-c2ccc(S(N)(=O)=O)cn2)n1 [Example 15]", "true"],
  ["Cc1nc(-c2ccc(Br)cc2)n(-c2ccc(S(N)(=O)=O)cc2)n1 [Example 4]", "false"],
  ["Cc1nc(-c2cccc(Cl)c2)n(-c2ccc(S(N)(=O)=O)cn2)n1 [Example 21]", "false"],
  ["Cc1nc(-c2ccc(Br)cc2)n(-c2ccc(S(N)(=O)=O)cn2)n1 [Example 17]", "true"],
  ["Cc1nc(-c2ccc(Br)cc2)n(-c2ccc(S(C)(=O)=O)cn2)n1 [Example 31]", "false"],
  ["Cc1nc(-c2cccc(F)c2)n(-c2ccc(S(N)(=O)=O)cn2)n1 [Example 20]", "true"],
  ["Cc1ccc(-c2nc(C)nn2-c2ccc(S(N)(=O)=O)cc2)cc1 [Example 5]", "false"],
  ["Cc1nc(-c2cccc(Br)c2)n(-c2ccc(S(N)(=O)=O)cc2)n1 [Example 9]", "false"]
]}

Determine whether this molecule shows Inhibitory effects of cyclooxygenase (COX): COX-1 lower than 40 % inhibition (ties excluded): Cc1nc(-c2ccccc2)n(-c2ccc(S(C)(=O)=O)cc2)n1 [Example 24]
true

----------
Target: cyclooxygenase-2 (Mus musculus, UniProt Q05769)
Construct: endogenous in cells; host or cells: Raw 264.7 (Korean cell line bank), aspirin-pretreated, induced with interferon gamma and LPS
Experiment: Inhibition of cyclooxygenase-2 in Raw 264.7 cells treated with interferon γ and LPS (PGE2 EIA)
Format: cell-based
Settings: 300 nM; Raw 264.7 cells
Lab note: anything with Inhibitory effects of cyclooxygenase (COX): COX-2 below 70 % inhibition is marked fulfilled; values at 70 % inhibition or higher are marked not fulfilled.

{"columns": ["compound", "label class"],
 "data": [
  ["Cc1nc(-c2cccc(Cl)c2)n(-c2ccc(S(N)(=O)=O)cn2)n1 [Example 21]", "fulfilled"]
]}

State whether 70 % inhibition exceeds Inhibitory effects of cyclooxygenase (COX): COX-2 recorded for Cc1nc(-c2ccc(Br)cc2)n(-c2ccc(S(C)(=O)=O)cn2)n1 [Example 31] .
not fulfilled

Find out if reported Inhibitory effects of cyclooxygenase (COX): COX-2 for COc1cc(OC)cc(-c2nc(C)nn2-c2ccc(S(N)(=O)=O)cc2)c1 [Example 13] is less than 70 % inhibition
fulfilled

Given the entry Cc1nc(-c2ccccc2)n(-c2ccc(S(C)(=O)=O)cc2)n1 [Example 24] , would its reported Inhibitory effects of cyclooxygenase (COX): COX-2 be below 70 % inhibition?
fulfilled

----------
Target: cyclooxygenase-2 (Mus musculus, UniProt Q05769)
Construct: endogenous in cells; host or cells: Raw 264.7 (Korean cell line bank), aspirin-pretreated, induced with interferon gamma and LPS
Sequence (Q05769 18-604): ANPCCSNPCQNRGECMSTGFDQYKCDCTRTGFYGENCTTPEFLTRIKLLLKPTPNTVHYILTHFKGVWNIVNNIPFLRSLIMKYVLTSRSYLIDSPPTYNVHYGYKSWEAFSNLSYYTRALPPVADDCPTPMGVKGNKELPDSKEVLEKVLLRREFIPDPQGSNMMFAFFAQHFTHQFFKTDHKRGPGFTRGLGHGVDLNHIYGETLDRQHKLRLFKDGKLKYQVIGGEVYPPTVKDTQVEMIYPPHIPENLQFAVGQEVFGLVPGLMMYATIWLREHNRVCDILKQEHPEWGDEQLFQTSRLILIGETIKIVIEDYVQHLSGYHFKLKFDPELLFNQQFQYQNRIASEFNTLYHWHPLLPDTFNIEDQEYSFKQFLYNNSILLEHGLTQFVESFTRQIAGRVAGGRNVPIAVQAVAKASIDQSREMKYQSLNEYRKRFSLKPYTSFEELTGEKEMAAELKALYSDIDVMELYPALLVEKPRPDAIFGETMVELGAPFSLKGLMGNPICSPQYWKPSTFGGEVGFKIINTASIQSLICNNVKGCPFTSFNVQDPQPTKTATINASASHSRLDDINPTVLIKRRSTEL
Experiment: Inhibition of cyclooxygenase-2 in Raw 264.7 cells treated with interferon γ and LPS (PGE2 EIA)
Format: cell-based
Conditions: 100 nM; Raw 264.7 cells
Rule: Inhibitory effects of cyclooxygenase (COX): COX-2 below 50 % inhibition gives MET, anything at or above gives NOT MET.

{"columns": ["molecule", "label class"],
 "data": [
  ["Cc1nc(-c2ccc(Br)cc2)n(-c2ccc(S(N)(=O)=O)cc2)n1 [Example 4]", "NOT MET"]
]}

Would you kindly verify if Inhibitory effects of cyclooxygenase (COX): COX-2 of Cc1nc(-c2ccc(Cl)cc2)n(-c2ccc(S(N)(=O)=O)cn2)n1 [Example 16] is strictly less than 50 % inhibition?
MET

Is 50 % inhibition strictly greater than the molecule's reported Inhibitory effects of cyclooxygenase (COX): COX-2? molecule: Cc1nc(-c2cccc(F)c2)n(-c2ccc(S(N)(=O)=O)cn2)n1 [Example 20]
NOT MET

Does this molecule meet the criterion Inhibitory effects of cyclooxygenase (COX): COX-2 < 50 % inhibition? COc1ccc(-c2nc(C)nn2-c2ccc(S(N)(=O)=O)cn2)cc1 [Example 19]
MET

Is the reported Inhibitory effects of cyclooxygenase (COX): COX-2 for Cc1nc(-c2ccc(Br)cc2)n(-c2ccc(S(N)(=O)=O)cn2)n1 [Example 17] strictly below 50 % inhibition?
NOT MET

Would you kindly verify if Inhibitory effects of cyclooxygenase (COX): COX-2 of COc1cccc(-c2nc(C)nn2-c2ccc(S(N)(=O)=O)cc2)c1 [Example 10] is strictly less than 50 % inhibition?
NOT MET

----------
Target: cyclooxygenase-2 (Mus musculus)
Construct: endogenous in cells; host or cells: Raw 264.7 (Korean cell line bank), aspirin-pretreated, induced with interferon gamma and LPS
Assay: Inhibition of cyclooxygenase-2 in Raw 264.7 cells treated with interferon γ and LPS (PGE2 EIA)
Type: cell-based
Conditions: COX-2 versus COX-1
result type: selectivity of cyclooxygenase-2 compared with the comparative substance (in words)

{"columns": ["cpd smiles", "test result"],
 "data": [
  ["COc1ccc(-c2nc(C)nn2-c2ccc(S(N)(=O)=O)cc2)cc1", "hardly different"],
  ["Cc1nc(-c2ccc(Br)cc2)n(-c2ccc(S(N)(=O)=O)cc2)n1", "hardly different"],
  ["Cc1nc(-c2cccc(Br)c2)n(-c2ccc(S(N)(=O)=O)cc2)n1", "hardly different"],
  ["Cc1nc(-c2ccc(Br)cc2)n(-c2ccc(S(C)(=O)=O)cn2)n1", "hardly different"]
]}
